pIC50: −log10 of the molar value.
Across several studies, molecules have been characterized by their pIC50 on UniProtKB O00763; a selection follows.
Each entry falls in a class defined on pIC50; the bands are low interval (below 6), middle interval (6 to below 7), high interval (7 or more)

[[record]]
molecule = "CCOc1ccc(C#Cc2ccc(C(C)C(=O)Nc3nncs3)cc2)cc1 (centres unmarked)"
target_under_test = "UniProtKB O00763"
cat = "low interval"

[[record]]
molecule = "C[C@H](NC(=O)c1cnc(N)o1)c1ccc(OC2CCN(c3ccc(OCC4CC4(F)F)cn3)C2)cc1 (some centres unmarked)"
target_under_test = "UniProtKB O00763"
cat = "middle interval"

[[record]]
molecule = "CC(=O)N[C@@H](C)c1ccc(O[C@@H]2CCN(c3ccnc(N4CCC5(CC5)C4)c3F)C2)cc1"
target_under_test = "UniProtKB O00763"
cat = "high interval"

[[record]]
molecule = "CC(=O)NC(C)c1ccc(CN2CCc3c(ccc(OCC(C)C)c3Cl)C2)cc1 (centres unmarked)"
target_under_test = "UniProtKB O00763"
cat = "high interval"

[[record]]
molecule = "CCOc1cc(N2CCC(Oc3ccc([C@H](C)NC(C)=O)cc3)C2)ccn1 (some centres unmarked)"
target_under_test = "UniProtKB O00763"
cat = "middle interval"

[[record]]
molecule = "CCNC(=O)C(C)c1ccc(C2CCN(c3ccc(OC)cc3C#N)CC2)cc1 (centres unmarked)"
target_under_test = "UniProtKB O00763"
cat = "middle interval"

[[record]]
molecule = "CCC(=O)Nc1nc(C)c(C(=O)N[C@@H](C)c2ccc(O[C@@H]3CCN(c4ccnc(NCC(F)F)c4F)C3)cc2)s1"
target_under_test = "UniProtKB O00763"
cat = "middle interval"

[[record]]
molecule = "CC(=O)NC(C)Cc1ccc(C2CN(c3ccc(C(C)(C)C)cc3)C2)cc1 (centres unmarked)"
target_under_test = "UniProtKB O00763"
cat = "low interval"

[[record]]
molecule = "CC(=O)NC(C)Cc1ccc(C#Cc2ccnc(N(C)CC3CCCCC3)n2)cc1 (centres unmarked)"
target_under_test = "UniProtKB O00763"
cat = "middle interval"

[[record]]
molecule = "COc1ccc(C#Cc2ccc(CC(C)NC(=O)C3CC3)cc2)cn1 (centres unmarked)"
target_under_test = "UniProtKB O00763"
cat = "low interval"

[[record]]
molecule = "CCNC(=O)C(C)c1ccc(C#Cc2ccc(OC)cc2)cc1 (centres unmarked)"
target_under_test = "UniProtKB O00763"
cat = "middle interval"

[[record]]
molecule = "C[C@H](NC(=O)c1cnc(N)o1)c1ccc(OC2CCN(c3ccnc(OCC(F)F)c3)C2)cc1 (some centres unmarked)"
target_under_test = "UniProtKB O00763"
cat = "middle interval"

[[record]]
molecule = "CC(=O)NC(C)Cc1ccc(C#Cc2ccnc(N3CCC(CO)C3)n2)cc1 (centres unmarked)"
target_under_test = "UniProtKB O00763"
cat = "low interval"

[[record]]
molecule = "C[C@H](NC(=O)Cc1cccnc1)c1ccc(C2CN(c3ccc(OCC4CC4)cc3)C2)cc1"
target_under_test = "UniProtKB O00763"
cat = "low interval"

[[record]]
molecule = "COc1ccc(Oc2ncc(C#Cc3ccc(CC(C)NC(C)=O)cc3)cn2)cc1 (centres unmarked)"
target_under_test = "UniProtKB O00763"
cat = "middle interval"

[[record]]
molecule = "C[C@H](NC(=O)c1cnn(C)c1Cl)c1ccc(OC2CCN(c3ccnc(OCC(F)F)c3)C2)cc1 (some centres unmarked)"
target_under_test = "UniProtKB O00763"
cat = "middle interval"

[[record]]
molecule = "CCC(C)Oc1ccc(N2CCC(Oc3ccc([C@H](C)NC(C)=O)cc3)C2)cc1 (some centres unmarked)"
target_under_test = "UniProtKB O00763"
cat = "middle interval"

[[record]]
molecule = "CC(=O)N[C@@H](C)c1ccc(O[C@@H]2CCN(c3ccc(OCC4CC4)cc3)C2)cc1"
target_under_test = "UniProtKB O00763"
cat = "high interval"

[[record]]
molecule = "COc1ccccc1C(Cn1c(=O)n(C(C)(C)C(=O)O)c(=O)c2c(C)c(-c3ncco3)sc21)O[C@H]1C[C@H]2CC(O)C(O)[C@H]2C1 (some centres unmarked)"
target_under_test = "UniProtKB O00763"
cat = "high interval"

[[record]]
molecule = "COc1c(F)cc(C#Cc2ccc(CC(C)NC(C)=O)cc2)cc1F (centres unmarked)"
target_under_test = "UniProtKB O00763"
cat = "middle interval"

